FYI, the data here is from patent US20210388087A1.

Molecular target: T1, Human CD3eg linker (human)
T1 construct: Single chain: epsilon and gamma subunits of human CD3 joined by a 29-mer linker, Flag-tag at the C-terminus; also called recombinant human CD3
T1 chain: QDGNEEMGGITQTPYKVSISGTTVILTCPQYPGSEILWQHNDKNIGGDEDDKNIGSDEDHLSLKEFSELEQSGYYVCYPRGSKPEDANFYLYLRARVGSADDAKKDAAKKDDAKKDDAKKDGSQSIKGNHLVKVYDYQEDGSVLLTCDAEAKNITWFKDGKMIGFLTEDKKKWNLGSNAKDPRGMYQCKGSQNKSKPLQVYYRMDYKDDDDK
Assay: Biacore SPR, vs template H183/L072
Outcome label depends on fold change of affinity relative to 0.5 fold: at/above gives YES, below gives NO.

Binder | Discrete label
H183/L072 VH D101I (antibody, name in Kabat numbering, V domains shown) VH: QVQLVESGGGLVQPGRSLRLSCAASGFTFSNAWMHWVRQAPGKGLEWVAQIKDKGNAYAAYYAPSVKGRFTISRDDSKNSIYLQMNSLKTEDTAVYYCHYVHYASASTVLPAFGVIAWGQGTTVTVSS VL: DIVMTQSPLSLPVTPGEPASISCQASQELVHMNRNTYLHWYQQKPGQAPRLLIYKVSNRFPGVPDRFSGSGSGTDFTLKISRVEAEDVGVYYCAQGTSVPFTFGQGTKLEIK | YES
H183/L072 VH A100L (antibody, name in Kabat numbering, V domains shown) VH: QVQLVESGGGLVQPGRSLRLSCAASGFTFSNAWMHWVRQAPGKGLEWVAQIKDKGNAYAAYYAPSVKGRFTISRDDSKNSIYLQMNSLKTEDTAVYYCHYVHYASLSTVLPAFGVDAWGQGTTVTVSS VL: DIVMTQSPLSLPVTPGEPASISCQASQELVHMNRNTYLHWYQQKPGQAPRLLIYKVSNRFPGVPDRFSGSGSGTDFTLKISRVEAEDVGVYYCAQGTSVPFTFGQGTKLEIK | YES
H183/L072 VH V63L (antibody, name in Kabat numbering, V domains shown) VH: QVQLVESGGGLVQPGRSLRLSCAASGFTFSNAWMHWVRQAPGKGLEWVAQIKDKGNAYAAYYAPSLKGRFTISRDDSKNSIYLQMNSLKTEDTAVYYCHYVHYASASTVLPAFGVDAWGQGTTVTVSS VL: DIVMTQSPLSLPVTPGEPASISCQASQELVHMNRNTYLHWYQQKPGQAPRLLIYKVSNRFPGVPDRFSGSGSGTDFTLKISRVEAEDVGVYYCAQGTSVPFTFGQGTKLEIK | YES
H183/L072 VH G65M (antibody, name in Kabat numbering, V domains shown) VH: QVQLVESGGGLVQPGRSLRLSCAASGFTFSNAWMHWVRQAPGKGLEWVAQIKDKGNAYAAYYAPSVKMRFTISRDDSKNSIYLQMNSLKTEDTAVYYCHYVHYASASTVLPAFGVDAWGQGTTVTVSS VL: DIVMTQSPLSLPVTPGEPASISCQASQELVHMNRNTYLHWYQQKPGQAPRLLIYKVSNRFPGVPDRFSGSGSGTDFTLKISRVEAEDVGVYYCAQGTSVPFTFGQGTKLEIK | YES
H183/L072 VH K52I (antibody, name in Kabat numbering, V domains shown) VH: QVQLVESGGGLVQPGRSLRLSCAASGFTFSNAWMHWVRQAPGKGLEWVAQIIDKGNAYAAYYAPSVKGRFTISRDDSKNSIYLQMNSLKTEDTAVYYCHYVHYASASTVLPAFGVDAWGQGTTVTVSS VL: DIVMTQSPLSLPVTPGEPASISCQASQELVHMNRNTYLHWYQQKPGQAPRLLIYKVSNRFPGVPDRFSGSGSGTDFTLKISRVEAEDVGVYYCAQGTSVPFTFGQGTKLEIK | NO
H183/L072 VH F29V (antibody, name in Kabat numbering, V domains shown) VH: QVQLVESGGGLVQPGRSLRLSCAASGFTVSNAWMHWVRQAPGKGLEWVAQIKDKGNAYAAYYAPSVKGRFTISRDDSKNSIYLQMNSLKTEDTAVYYCHYVHYASASTVLPAFGVDAWGQGTTVTVSS VL: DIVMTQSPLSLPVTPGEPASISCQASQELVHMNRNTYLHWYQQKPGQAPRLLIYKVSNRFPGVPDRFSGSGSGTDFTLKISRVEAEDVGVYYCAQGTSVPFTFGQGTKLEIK | NO
H183/L072 VH I51W (antibody, name in Kabat numbering, V domains shown) VH: QVQLVESGGGLVQPGRSLRLSCAASGFTFSNAWMHWVRQAPGKGLEWVAQWKDKGNAYAAYYAPSVKGRFTISRDDSKNSIYLQMNSLKTEDTAVYYCHYVHYASASTVLPAFGVDAWGQGTTVTVSS VL: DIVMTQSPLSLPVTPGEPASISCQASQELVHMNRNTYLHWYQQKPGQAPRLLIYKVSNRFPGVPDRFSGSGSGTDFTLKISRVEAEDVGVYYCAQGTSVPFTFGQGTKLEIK | NO
H183/L072 VH N31E (antibody, name in Kabat numbering, V domains shown) VH: QVQLVESGGGLVQPGRSLRLSCAASGFTFSEAWMHWVRQAPGKGLEWVAQIKDKGNAYAAYYAPSVKGRFTISRDDSKNSIYLQMNSLKTEDTAVYYCHYVHYASASTVLPAFGVDAWGQGTTVTVSS VL: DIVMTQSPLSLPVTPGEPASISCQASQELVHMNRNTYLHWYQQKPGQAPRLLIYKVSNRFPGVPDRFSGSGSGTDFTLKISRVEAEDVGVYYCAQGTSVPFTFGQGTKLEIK | NO
H183/L072 VH Y94A (antibody, name in Kabat numbering, V domains shown) VH: QVQLVESGGGLVQPGRSLRLSCAASGFTFSNAWMHWVRQAPGKGLEWVAQIKDKGNAYAAYYAPSVKGRFTISRDDSKNSIYLQMNSLKTEDTAVYYCHAVHYASASTVLPAFGVDAWGQGTTVTVSS VL: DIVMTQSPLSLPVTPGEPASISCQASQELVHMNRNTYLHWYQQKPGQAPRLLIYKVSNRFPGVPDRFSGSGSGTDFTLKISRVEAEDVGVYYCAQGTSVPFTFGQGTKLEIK | NO
